Molecular target: Neu5Ac(a2-3)Gal(b1-4)GlcNAc(b1-3)[Neu5Ac(a2-3)Gal(b1-4)GlcNAc(b1-6)]GalNAc
Test: glycan array binding signal (z-score within array); higher = stronger binding
Details: glycan notation: IUPAC condensed, linker removed
The sample as a whole holds a higher share of the strongest signals than the screen did.
glycan array binding signal (z-score) values for the binders below.
# output: bare number, no unit

Notebook: GST Gap3 (Streptococcus parasanguinis) (protein) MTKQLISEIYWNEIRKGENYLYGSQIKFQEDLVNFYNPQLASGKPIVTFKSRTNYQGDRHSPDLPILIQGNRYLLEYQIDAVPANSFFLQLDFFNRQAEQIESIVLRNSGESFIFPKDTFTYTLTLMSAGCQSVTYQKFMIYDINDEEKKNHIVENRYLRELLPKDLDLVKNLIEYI , glycan array binding signal (z-score) read as -0.511

Notebook: Pwp7 (Candida glabrata) (protein) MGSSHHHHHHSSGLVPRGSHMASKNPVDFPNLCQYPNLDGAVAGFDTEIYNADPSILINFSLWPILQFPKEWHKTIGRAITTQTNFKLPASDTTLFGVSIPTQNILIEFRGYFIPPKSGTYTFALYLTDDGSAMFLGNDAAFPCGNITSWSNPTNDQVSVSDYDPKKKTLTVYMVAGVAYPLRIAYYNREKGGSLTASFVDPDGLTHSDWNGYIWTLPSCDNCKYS , glycan array binding signal (z-score) read as 2.25
